Assay: folding stability dG unfold (combined trypsin and chymotrypsin); higher = more stable
I'd appreciate it if you could supply folding stability dG unfold values for the items below.
Give bare numbers, in kcal/mol.

Answered cases to consult:
ordered_residues	property_name	scale_unit	meas_value
SAGGSAGGKKVYPIPGATPNQFRELLDENKGTLKIYMPNGKQEEFPIKPGMEPIPGGPAWIERKSAGGSAGG [r6_304_TrROS]	folding stability dG unfold	kcal/mol	-0.871
SAGGSAMSPEEVEEKIKEIAKKLGVEIEVKVEISPEGGIKITVKVNDKFDINEIKKGIEEALGIKLSAGGSA [r15_807_JUSTAS]	folding stability dG unfold	kcal/mol	3.94
SAGGSAGGSAGGLVAKVYRDGKEAVFYFDSPEEMVESIRPLFPDGKEVKVEVTTPEELFSAGGSAGGSAGGS [r10_1167_TrMRF]	folding stability dG unfold	kcal/mol	0.0392

Fill in folding stability dG unfold for each of the 4 sequences listed.
1. SAGGSAGGSTIMFKVDSPDELIDKIKIPPGFRVEIMQTPDRYYVMIRPPPSPEQMAKREKNNGSAGGSAGGS [r12_274_TrROS]
2. SAGGSAGGSMLVEVEYEGGERRTFPLENRSVEEAVEALPEGVTRVRVTVYLGEKPVEFEVERPSAGGSAGGS [r12_767_TrMRF]
3. SAGGSAGGSAGGMKPGEVVLIYVERSYYDPEKGPLTPRNARYELLNYKPLPLKPKDPKVLSAGGSAGGSAGG [r7_522_JUSTAS]
4. SAGGSAGGSAGGSGPSVTVSTTTLPPLPVTVETVTVGDTTVLVVFTPEGGSAVVPSGALSAGGSAGGSAGGS [r4_256_JUSTAS]

output:
1: 3.26; 2: 0.799; 3: -0.516; 4: 1.4

----------
Would you mind telling me the reported folding stability dG unfold of each entry?
Assay: folding stability dG unfold from chymotrypsin proteolysis; higher = more stable
One number for each entry, in kcal/mol.

Before answering, review these 6 worked examples.
ordered_residues	folding stability dG unfold [kcal/mol]
SAGKPRPVEIDFPMPPGFPNMPPEEMANMIARELDENGLKIEPKNMNPGEPYVRYTVEVNGKPILEITFSAG [r5_80_TrROS]	1.51
SAGGPVIEVEKEYIPETGLVKVKVRDPSSDRELEIIAPSDLVDKIEKALENAPGTNSEAAVREALRDSAGGS [r8_484_TrMRF]	0.921
SAGGSAGGGNVYVKIEIYPYDPKNGEPQEQDITIPFETKEDAKDEIEKLLNMPNGMWIKIEVVDSAGGSAGG [r7_0_TrROS]	1.47
SAGGSAGGSAGGMIRIVNEETGEEIEISPEELEELLAKSDKPVRIEVDGKVIPLDAKDLSAGGSAGGSAGGS [r10_839_TrROS_Hall]	-0.268
SAGGSAGGSAGGIIIPPGAKIVSIEKEGDFVKIKVYIPGSKKIETFKFPKGVPIIFEPEASAGGSAGGSAGG [r11_774_TrMRF]	3.24
SAGGSAGGSAGMKVKTDPSSGPTVNKAYLENGTLILTTVTYDPSNGTTSTTTTVVPLSLLSAGGSAGGSAGG [r17_287_JUSTAS]	1.23

Quick batch: folding stability dG unfold for everything below.
1. SAGGPMPPGQKRTVTIDLEYNPENGGYRVRAYSPGGKPIEEFPFPRDNLEEFAEEFANKGVDYVEIEPSAGG [r13_765_TrROS]
2. SAGGSAGGSGMNVKTIKIYSPEGGETTVPVTGTTVTIGGETVTVTSDVVVPVPPTIKSIEVVGSAGGSAGGS [r12_779_JUSTAS]
3. SAGGSAGGSMFKVIVESEDPEKALEEAKALIEKIEEEGIGEIKKFEFLIVPKDIPEYKKLKEKSAGGSAGGS [r12_551_TrMRF]
4. SAGGATITVEPAPGDSVVALAEFGDSLALVTFYPKEATAKVTVFGPNGIPSTATFTIKPGEELVITGSAGGS [r8_11_TrMRF]
5. SAGGKLQLLLRSPDGNVEVALSFEKLPDGKVKVTATVRNKKTGRTYRLEVTFDLKTKKIEIKLEELPSAGGS [r16_684_TrROS_Hall]
6. SAGGSGPLLERALEEIREALAKAKEGEEVEIEVKVTVTGPDGRTREFTFRIRFVVKDGKIVKVEIESAGGSA [r2_173_TrROS_Hall]
7. SAGSITTTDGNISRSVTYIPGLNLYLVTSTYPTSVSVDLVTEEGGTLTTTPVSTTPLPLPASSLSTTASAGG [r19_328_JUSTAS]
8. SAGGMPVTTTPRTVELPDRRVEVIDRTFPNGPPRTTVVVRDPAGNLVATREFTGPEWEEWLRAEGALLSAGG [r19_90_JUSTAS]

output:
1. 0.528
2. 0.769
3. 0.438
4. 1.59
5. 6.24
6. 4.94
7. -0.16
8. 1.06

----------
Assay: folding stability dG unfold (combined trypsin and chymotrypsin); higher = more stable
Can you tell me folding stability dG unfold for the items I'm about to list?
One number for each entry, in kcal/mol.

ordered_residues	folding stability dG unfold / kcal/mol
SASPWIQKLAEEIADELAKENGWEEVKFTVTLPIRMPMYRYDPNGKKEPHDMWMWIKFEVTARVPPGDPSAG [r14_232_TrROS]	2.14
SAGGSAGGSARIRFPNGYEIEVPRKRNPDGNLEITIESRNPDNPEHREMAKKIARDIADELSAGGSAGGSAG [r3_163_TrROS]	-0.526
SSITETKEFLLESEEEVEAIAEELKKPGVEVEVEVKEVERVDKKTGKKKKALKATITVKIPLPPPEKGKLSA [r9_962_JUSTAS]	0.794
SAGMKLELLLPAEEAVRLFGPDFDARDLARALASEGYVVESVEAEPFPNPEEGGLYLRVTFDVRPPDASAGG [r19_376_TrMRF]	1.38
SAGGSAGGSSVTRLIYLEDGTVLVVKLTPKPLVLPDGKPAFVLGFEVVEIRPVKDPKEALKALSAGGSAGGS [r12_915_TrMRF]	1.61

For every record below, what is its folding stability dG unfold?
1. SAGGSAGGSAGGMTIVIVVPAENLTPEEIAELLREAGYEVTVERREDGYLVVTVRLPEPSAGGSAGGSAGGS [r10_1254_TrROS_Hall]
2. SAGGSATSIEYESPGVVETVSFTREPDGTLTVTVTVREPNGPVLKTLPTTETLPPDAGVTASVPLPSAGGSA [r15_950_JUSTAS]

output:
1. 3.43
2. 0.529

Report folding stability dG unfold for each item below.
1. SAGGSAGGSAGALPFKVKVVEVEVDGDEVTVKVVAELPTGTATVELKLGGKLETLTISPVSAGGSAGGSAGG [r17_45_TrMRF]
2. SMVTVEEYEEDDEYYVKVYDPEKGVGVVFKTKDGVFKMPVTDPEALKEAIKASGIDVEIVEVRPLGPGLVSA [r9_1102_JUSTAS]
3. SAGMKITISYDEAKGIATVTLYEERPVETPNGPVTLRRKVATVTIPYTSLEEAKKQAEEAAKALLEKLSSAG [r5_956_JUSTAS]
4. SAAVPSDLTLTTLETKKEKFDDNEYTVVKSVLLRPGAPGATVTEYTTVYKGDKVVETKPSERTVSPALLSAG [r14_651_JUSTAS]
5. SAGGSAMKLTLKDKKGNTLFLEVEEKTSEDGTPYYEVKIYYPNTNKVEYAEVPVENLEEFAKKLADSAGGSA [r15_92_TrMRF]

output:
[2.16, 0.492, 5.06, -0.0404, 3.25]

Provide the reported folding stability dG unfold of each entry below, same order.
1. SAGGSAGGSLSLPEGFKLSSLVSVEELPGVLRIYFLDPEKPLLYEVVYDLETGEQTVERIPIGSAGGSAGGS [r12_206_JUSTAS]
2. SAGGSAGGSAMPKVTIKITVYNAETGELRTVTLTLPEEDMSLEEIAAALPPGWRIVKVELLSAGGSAGGSAG [r3_80_TrROS_Hall]

output:
2.5
4.34

// for each sequence in input: emit folding stability dG unfold
1. SAKIEVYELPDGSKEIVFEFGDKVIRVTFFPDYPLAVVEVFDPPKDEVVKTIPVRADDLEDTIKKILEESAG [r14_583_TrMRF]
2. SAGGSAGGSAGGSYEVKEETEPKTGLKITTTTLPDGTIETTTINPATGEVTTTTSSPLESAGGSAGGSAGGS [r10_127_JUSTAS]
3. SAGGSAGGSNNPDKKKKPRYVVIQIELKWYPNPNGQWSPELEITATVPAGDLEDKDDAIKDIISAGGSAGGS [r12_933_TrROS]
4. SMEIKIEITYDKDTNYLVIKVTIKLKTKTVDKKTKKVTEKEEEITLTLVIKLKPLKPGQKLKLEIKLFPESA [r9_1058_TrROS_Hall]

output:
[2.67, 1.73, 1.68, 4.4]

For each of the items listed, what is its folding stability dG unfold?
1. SAGGSAGGSPVFESPEQAKAFLDNVPADSTVLIAVKNPETGEWQLFVVKVPPKRPVGYPGDKDSAGGSAGGS [r12_393_TrMRF]
2. SAGGEEVVVERPPAPPPITVTIEYDEETNTVTVTVTLPNGETLTITVEAPSLEEAEAAARELLEALSSAGGS [r16_319_TrROS_Hall]
3. SAGMKKVIELTIPVTGPEEVEELVAKLEEEEPAVPVERRPDPRLGAVRVVVEKKFPDSIVYITLTAAASAGG [r19_262_JUSTAS]
4. SAGGSADRVTVTVTVRVRDPATGEWREVTETVTVPAPLTLEITLPPGWRLRLTLEDGELRLEVEPESAGGSA [r2_109_TrROS_Hall]

output:
1: 1.56; 2: 2.93; 3: 0.677; 4: 3.93

Please look at the items below and tell me folding stability dG unfold for each one, in order.
1. MVAVFEFTFKSEEELLEAAEEVARRLAAELGLPEEELEKIPIEVEVEEIGNEDGEKEYKLTIRFGFPEEFLS [r1_81_TrMRF]
2. SAGSMLSVEEVEVTYNNPETGTPATIKLTVPVFYDPVTGRVEVEVEVEPSPEVPEEVAKEIAEKVKEKRSAG [r14_152_JUSTAS]

output:
1. 3.83
2. -0.0138
